Biological target: T1, hu4-1BB-Fc (R&D Systems) (human, UniProt Q07011 24-186)
T1 construct: Bought; also called human 4-1BB; not shown: human IgG Fc of the bought fusion
Test: SPR (Biacore 8K), hu4-1BB-Fc captured by anti-human IgG Fc; apparent value, 1:1 fit
Description: The anti-human IgG Fc antibody (GE Healthcare) was immobilized on a CM5 sensor chip using standard amine chemistry: the carboxyl groups on the chip were activated using 1-ethyl-3-(3-dimethylaminopropyl)-carbodiimide (EDC) and N-hydroxysuccinimide (NHS). […] The binding assay was carried out with a contact time of 180 s, a dissociation time of 1200 s or 3000 s and a flow rate of 30 μL/min. […] Data were evaluated with Biacore Evaluation software. […]
Observed property: koff (s⁻¹)
Answers are plain numbers, in s⁻¹.

Take each entry in turn and give its koff.
1. multimeric protein SEQ ID NO: 38 (designed binder, Trivalent; Self-assembled from its monomer polypeptides) QDSTSDLIPAPPLSKVPLQQNFQDNQFHGKWYVVGQAGNIRLREDKDPIKMMATIYELKEDKSYDVTMVKFDDKKCMYDIWTFVPGSQPGEFTLGKIKSFPGHTSSLVRVVSTNYNQHAMVFFKFVFQNREEFYITLYGRTKELTSELKENFIRFSKSLGLPENHIVFPVPIDQCIDGGGGGSGGGGSGGGGSGVRLWATRQAMLGQVHEVPEGWLIFVAEQEELYVRVQNGFRKVQLEARTPLGGSGGAPEQKLISEEDLGSHHHHHHHHHH
2. multimeric protein SEQ ID NO: 41 (designed binder) QDSTSDLIPAPPLSKVPLQQNFQDNQFHGKWYVVGQAGNIRLREDKDPIKMMATIYELKEDKSYDVTMVKFDDKKCMYDIWTFVPGSQPGEFTLGKIKSFPGHTSSLVRVVSTNYNQHAMVFFKFVFQNREEFYITLYGRTKELTSELKENFIRFSKSLGLPENHIVFPVPIDQCIDGGSPTPTPTTPTPTPTGVRLWATRQAMLGQVHEVPEGWLIFVAEQEELYVRVQNGFRKVQLEARTPLGGSGGAPEQKLISEEDLGSHHHHHHHHHH

1. 2.22e-05
2. 2.07e-05
